For each entry below, report its EC50 value.
# Test system: BT474 breast tumor cell line
# experiment: BT474 assay (Alamar blue)
# Format: cell-based
# studyConditions: Homo sapiens, BT-474, 72 h
Square brackets hold non-standard residues; d marks the D form. Peptide text beside a SMILES is read from it. NMeTrp(1-(4-Br-benzyl)) = CN[C@@H](Cc1cn(Cc2ccc(Br)cc2)c2ccccc12)C(=O)O; Butanoyl(2R-oxy,4-CN) = N#CCC[C@@H](O)C(=O)O; Abu(4,4,4-F3) = N[C@@H](CC(F)(F)F)C(=O)O; NMeL = CN[C@@H](CC(C)C)C(=O)O; NMeA = CN[C@@H](C)C(=O)O
Give bare numbers, in nM.

>  <molecule>
CC(C)C[C@@H]1NC(=O)[C@H](Cc2cn(Cc3cncc(F)c3)c3ccccc23)N(C)C(=O)[C@H](CC(C)C)NC(=O)[C@H](CC(C)C)N(C)C(=O)[C@H](CC(C)C)NC(=O)[C@@H](CCC#N)OC(=O)[C@H](C)N(C)C1=O [C-35] (HELM PEPTIDE1{L.[meA].[N#CCC[C@@H](O[*:1])C(=O)[*:2]].L.[meL].L.[CN([C@@H](Cc1cn(Cc2cncc(F)c2)c2ccccc12)C(=O)[*:2])[*:1]]}$PEPTIDE1,PEPTIDE1,1:R1-7:R2$$$V2.0)

>  <readoutType>
EC50

>  <scaleUnit>
nM

>  <endpointValue>
1260

$$$$
>  <molecule>
CC(C)C[C@@H]1NC(=O)[C@H](Cc2cn(Cc3ccc(Br)cc3)c3ccccc23)N(C)C(=O)[C@H](CC(C)C)NC(=O)[C@H](CC(C)C)N(C)C(=O)[C@H](CC(F)(F)F)NC(=O)[C@@H](CCC#N)OC(=O)[C@H](C)N(C)C1=O [C-41] (cyclo(L[NMeA][Butanoyl(2R-oxy,4-CN)][Abu(4,4,4-F3)][NMeL]L[NMeTrp(1-(4-Br-benzyl))]))

>  <readoutType>
EC50

>  <scaleUnit>
nM

>  <endpointValue>
832

$$$$

Shifting focus to the molecule that follows.
// query Name the reported EC50 value associated with the molecule C#CC[C@H]1OC(=O)[C@H](C)N(C)C(C)[C@H](C[C@H](C)CCCC)NC(=O)[C@H](Cc2ccccc2)N(C)C(=O)[C@H](CC(C)C)NC(=O)[C@H](CC(C)C)N(C)C(=O)[C@H](C[C@H](C)CCCC)NC1=O (stereo partly drawn)
// result 730
